# Tested on: P. berghei liver stage (PbLuc)
# Parameters: species or system HepG2-A16-CD81; P. berghei luciferase sporozoite infection of hepatocytes, liver stage luminescence
# Reported Conditions: 48 h, inhibitor
Recorded Endpoint: PbLuc primary screen (10uM): inhibition % (n=1) (%)
Answers are plain numbers, in %.

For each of the molecules below, state PbLuc primary screen (10uM): inhibition % (n=1).
1. CCc1c(C)[nH]c2cc(C3CCN(CCc4ccccc4)C3)nn2c1=O (centres unmarked)
2. Cc1[nH]n(C2CCS(=O)(=O)C2)c(=O)c1Cc1cccc(Cl)c1 (centres unmarked)
3. COc1cccc(C2=NN=CC2=C2NC(CN3CCCC3)=NO2)c1
4. CN(Cc1ccc(F)c(F)c1)C(=O)CCC1=NC(=C2N=CN=N2)NO1
5. CCc1c(C)nn2c(=O)cc(C3CCN(C(=O)c4cnn(C)c4)C3)[nH]c12 (centres unmarked)

[83.3, 28.5, 34, 55.4, 9.3875]

====

# System: HepG2-A16-CD81 hepatocytes
# Parameters: Uninfected hepatocyte viability, CellTiter-Glo luminescence
# Reported Conditions: cytotoxicity primary screen, inhibitor
Recorded Endpoint: HepG2 toxicity primary screen (10uM): inhibition % (n=1) (%)
Numbers only, in %.

Completed entries (count: 5):
For the compound `Cc1nc(N2CCCC2)ncc1-c1cc(=O)n2ncnc2[nH]1` , give its measured HepG2 toxicity primary screen (10uM): inhibition % (n=1) value.
10.6

For the compound `Cc1nc(=O)cc(CCNC(=O)CC[C@@H]2CCCN3CCCC[C@H]23)[nH]1` , give its measured HepG2 toxicity primary screen (10uM): inhibition % (n=1) value.
0.956

For the compound `Cc1ncc(CN2CCc3c([nH]c4cc(C5CC5)nn4c3=O)C2)n1C` , give its measured HepG2 toxicity primary screen (10uM): inhibition % (n=1) value.
6.62

For the compound `COCC(=O)Nc1[nH]nc2c1c(C)nn2Cc1cccc(OC)c1` , give its measured HepG2 toxicity primary screen (10uM): inhibition % (n=1) value.
-11.7

For the compound `Cc1[nH]n(-c2ccc(F)cc2)c2nnc(N)c1-2` , give its measured HepG2 toxicity primary screen (10uM): inhibition % (n=1) value.
13.6

Now for another entry.
For the compound `Cc1[nH]n(-c2ccccc2)c2nc(C(C)(C)CN3CCN(C)CC3)nc1-2` , give its measured HepG2 toxicity primary screen (10uM): inhibition % (n=1) value.
-2.13

====

# System: HepG2-A16-CD81 hepatocytes
# Design: Uninfected hepatocyte viability, CellTiter-Glo luminescence
# Reported Conditions: cytotoxicity primary screen, inhibitor
Please respond with reported HepG2 toxicity primary screen (10uM): inhibition % (n=1) for every item in the list.
Numbers only, in %.

For the compound `Fc1cccc(C2=NN=CC2=C2NC(CN3CCOCC3)=NO2)c1` , give its measured HepG2 toxicity primary screen (10uM): inhibition % (n=1) value.
-7.58

For the compound `COCCC(=O)N1Cc2[nH]c3c(C)c(-c4cccs4)nn3c(=O)c2C1` , give its measured HepG2 toxicity primary screen (10uM): inhibition % (n=1) value.
-1.19

For the compound CCc1c(C)nn2c(=O)cc(C3CCN(C(=O)c4ccccn4)C3)[nH]c12 (stereo not shown) , give its measured HepG2 toxicity primary screen (10uM): inhibition % (n=1) value.
6.7

Now for another entry.
For the compound CCc1c(C)[nH]c2cc(C3CCN(Cc4cccnc4)C3)nn2c1=O (stereo not shown) , give its measured HepG2 toxicity primary screen (10uM): inhibition % (n=1) value.
-25.4

// provenance: paper PMC7155171
